Source of measurements: ChEMBL document CHEMBL5058577

test system: U2OS; test: Multiplex assay against U2OS; format: toxicity, cell-based; conditions: human, 12 h, 1 µM, compound concentration 1 uM, replicate 1

Molecule	System tested	Population Normal (%)
O=c1ccc2ccc(OCCCCN3CCN(c4cccc5sccc45)CC3)cc2[nH]1	U2OS	93
Cl.Cl.OCCOCCN1CCN(C(c2ccccc2)c2ccc(Cl)cc2)CC1 (centres undefined) [HYDROXYZINE HYDROCHLORIDE]	U2OS	99
COc1c(Nc2ccc(S(C)(=O)=O)nc2C)ncnc1OC1CCN(C(=O)OC(C)C)CC1	U2OS	97
COc1ccc2c(c1OCc1ccccc1)C[C@@H](C(=O)O)N(C(=O)C(c1ccccc1)c1ccccc1)C2	U2OS	97
OCCCNc1cc(-c2ccnc(Nc3cccc(Cl)c3)n2)ccn1	U2OS	97
CC(C)(O)C(=O)N1CCN(c2ccc(C(F)(F)F)c(C3=C(c4c[nH]c5ccccc45)C(=O)NC3=O)c2)CC1	U2OS	96
Cc1sc2c(c1C)C(c1ccc(Cl)cc1)=N[C@H](CC(=O)OC(C)(C)C)c1nnc(C)n1-2	U2OS	97
Cc1cc(O)c(-c2ccc([C@@H](C)CN(C)C)cc2)c2c1[nH]c(=O)c1sccc12	U2OS	95
Cn1cc(C(=O)OCC2CCN(CCNS(C)(=O)=O)CC2)c2ccccc21	U2OS	96
CC(C)C[C@H](CO)Nc1nc(S[C@@H](C)c2ccccc2)nc2nc(N)sc12	U2OS	96
N[C@](CC1c2ccccc2Oc2ccccc21)(C(=O)O)[C@H]1C[C@@H]1C(=O)O	U2OS	98
Cc1cc(NC(=O)NCCN2CCC(O)(Cc3ccccc3)CC2)c2ccccc2n1	U2OS	98
CCn1c(-c2nc3cc(C(=O)N4CCCC(N)C4)ccc3n2C)cc2ccccc21.Cl (centres undefined)	U2OS	99
CN1CCC(C(=O)c2cccc(NC(=O)c3c(F)cc(F)cc3F)n2)CC1	U2OS	97

* * *

tested on: HEK-293T; experiment: Multiplex assay against HEK293T; format: toxicity, cell-based; conditions: human, 48 h, 10 µM, compound concentration 10 uM, replicate 2
Property: Population Tubulin-Different-Phenotype (%)

Compound	Recorded measurement
O=C(Nc1cc(-c2ccccc2)nn1-c1ccccc1F)c1ccc([N+](=O)[O-])cc1	26%
OCCCNc1cc(-c2ccnc(Nc3cccc(Cl)c3)n2)ccn1	79%
Cc1cc(=O)n(C)c2cc(N3C(=O)CC[C@H](NS(=O)(=O)CC(C)C)[C@H]3c3ccc(Cl)cc3)ccc12	56%
COc1cc2nc(N3CCN(C(=O)COc4c(OC)cccc4C(C)C)CC3)nc(N)c2cc1OC.Cl.Cl	38%
Nc1nc(CC(=O)Nc2ccc(CCNC[C@H](O)c3ccccc3)cc2)cs1 [MIRABEGRON]	15%

* * *

tested on: HEK-293T; test: Multiplex assay against HEK293T; assay type: toxicity, cell-based; conditions: human, 12 h, 10 µM, compound concentration 10 uM, replicate 1
Quick reference for Population Tubulin-Different-Phenotype (%) among some compounds
Property: Population Tubulin-Different-Phenotype (%)

Compound	Scale unit	Recorded measurement
CC(C)(C)c1ccc(CSc2cnn(C(C)(C)C)c(=O)c2Cl)cc1 [PYRIDABEN]	%	55
Cn1cc(C(=O)OCC2CCN(CCNS(C)(=O)=O)CC2)c2ccccc21	%	53
S=C(NCCCc1c[nH]cn1)NCCCN(Cc1ccc(Cl)c(Cl)c1)c1ccc(Br)cn1	%	78
O=C(NCCNCC(O)COc1ccc(O)cc1)N1CCOCC1.O=C(NCCNCC(O)COc1ccc(O)cc1)N1CCOCC1.O=C(O)/C=C/C(=O)O (centres undefined) [XAMOTEROL FUMARATE]	%	19
CSc1nc(NC2CCCC2)c([N+](=O)[O-])c(NC2CCCC2)n1 [GS-39783]	%	40
Cc1c(Cc2ccc3ccccc3n2)c2cc(F)ccc2n1CC(=O)O [TIMAPIPRANT]	%	38
Cc1cc(O)c(-c2ccc([C@@H](C)CN(C)C)cc2)c2c1[nH]c(=O)c1sccc12	%	60
CCCCCCNC(=O)Nc1ccc(S(=O)(=O)Nc2ccc(CCNC[C@H](O)COc3ccc(O)cc3)cc2)cc1 [L-755507]	%	68
CCc1nn2c(C)cc(C)nc2c1Cc1ccc(-c2nnc(C3CCNCC3)o2)cc1	%	65
